IGF-1 KIRA overview
Subject of test: IGF-1 (human, UniProt P05019 49-118)
Sequence (P05019 49-118): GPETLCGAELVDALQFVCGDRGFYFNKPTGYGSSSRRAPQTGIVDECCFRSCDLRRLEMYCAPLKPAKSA
Assay overview: cell-based or functional assay
Bridge positions count the residues as written; N and C are the ends. Ends that are not written are not given here.
Readout type: IGF-1 KIRA

{"Binder": "FECLTSVEALRGCMYG (synthetic peptide) [F1-3]", "Result": "102 µM"}
{"Binder": "DECLMSVEALKNCMGG [F1-P]", "Result": "400 µM"}
{"Binder": "MDCLASVEALKWCMYG (synthetic peptide) [F1-2]", "Result": "20 µM"}
{"Binder": "RNCFESVAALRRCMYG (disulfide 3-13, synthetic peptide; also called IGF-F1-1) [F1-1]", "Result": "84.9 µM"}
{"Binder": "WRCVDDLGGFQYCWAG [F2-2]", "Result": "130 µM"}
